# reported normalized RNA/DNA level without ligand (log10); entries follow
B1: library; a variant is named by its letters at N, in order (parent)
chain: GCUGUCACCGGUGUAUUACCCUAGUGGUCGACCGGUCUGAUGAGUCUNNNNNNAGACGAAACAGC

Variants of: B1
methodDescription: normalized RNA/DNA level without ligand (relative to sTRSVctl = 100) (log10 (% of sTRSVctl)); ligand: hypoxanthine (xanthine aptamer); higher = less ribozyme self-cleavage, higher mRNA level
conditions: HEK293T, reporter: mCherry (pCS4076), ligand present: no
measurementType: normalized RNA/DNA level without ligand (log10)

variantAnnotation	number
GGUCGC	1.74
UUACUA	1.89
CGCCGA	1.89
UUUCAU	1.84
GAGGAG	1.17
CGUUGG	1.41
AUGUUG	1.44
CUGCAC	1.87
AGCAAA	1.73
UAAUCG	1.63
CGACGC	1.87
GCUCGU	1.83
ACGCGC	1.54
UACCGA	1.75
AAACCA	1.81
AGGUUU	1.87
UAGUUC	1.87
AGGGUU	1.9
UCCACG	1.71
GUCCAA	1.79
CACACA	1.78
AGUUAA	1.76
